targetOrTestSystem: High affinity choline transporter 1 (Homo sapiens)
testSummary: human choline transporter potentiators – cell-based, membrane potential dye, duplicate, confirmation (AID 504833)
statedConditions: CHT-expressing cells, membrane potential dye fluorescence (FDSS); at 10 µM; hits give high values; % of choline EC20–EC90 response window; HEK293 expressing CHT LV-AA mutant; choline added at its EC20
In all, about 2,500 compounds went through this assay and about 2,200 (88%) were called active. So high a share suggests a set chosen from earlier hits. The list is a sample of the results.
Each entry falls into one class according to its activation; the ranges are A (below 30%), B (30% to below 40%), C (40% or more)

These solved cases illustrate the format of a correct answer.
| compound | group |
| --- | --- |
| O=Cc1ccc(OCc2cn3ccccc3n2)cc1 | B |
| COc1ccccc1NC(=O)CN(c1ccccc1OC)S(=O)(=O)c1ccccc1 | A |
| CN(C)/C=C/C(=O)c1cnc2sccn2c1=O | C |
| COc1cccc(C(=O)NC(=O)Nc2nc(C)cc(C(F)(F)F)n2)c1 | C |
| CCn1cc(S(=O)(=O)c2cccc(C)c2)c(=O)c2cc(F)c(N3CCN(C)CC3)cc21 | C |

Prompt: Assign a bin to CC(Sc1nc2ccccc2c(=O)n1Cc1ccco1)C(=O)c1ccccc1 (configuration not stated)
Completion: A

Prompt: Assign a bin to "CCN1/C(=C/c2ccc3ccc(C)cc3[n+]2CC)Sc2ccccc21"
Completion: A

Prompt: Assign a bin to CC(C)CC(COCc1ccc(Cl)cc1)N1CCN(C(=O)c2ccc(C(F)(F)F)cc2)CCC1=O (configuration not stated)
Completion: B

Prompt: Assign a bin to Cc1ccccc1C(=O)NCC(c1ccco1)N1CCc2ccccc21 (configuration not stated)
Completion: A

Prompt: Assign a bin to "COc1ccc2c(c1)cc1n2CCN=C1NN"
Completion: C

Prompt: Assign a bin to CCN1CCCC1CNC(=O)c1cc2c(=O)n(C)c3ccccc3c2n1C (configuration not stated)
Completion: C

Prompt: Assign a bin to "Clc1ccc(C[n+]2cc(-c3ccc(Cl)cc3)n3c2CCC3)cc1"
Completion: C

Prompt: Assign a bin to "COc1ccc(Nc2cc(C)nc(-n3nc(C)cc3C)n2)cc1"
Completion: A

Prompt: Assign a bin to CN(C)c1cc(N)c2ccccc2n1 (tested in a mixture with another compound)
Completion: C

Prompt: Assign a bin to COc1ccc([N+](=O)[O-])cc1N(CC(O)CN(CC(C)C)CC(C)C)S(=O)(=O)c1ccc(C)cc1 (configuration not stated)
Completion: B

Prompt: Assign a bin to "CCN(CC)CCCNC(=O)c1cn(C)c2ccc(S(=O)(=O)N(C)C3CCCCC3)cc2c1=O"
Completion: B

Prompt: Assign a bin to "CCn1c(/C=C/Nc2ccccc2)[n+](CC)c2ccc(C(=O)OCC(F)(F)F)cc21"
Completion: C

Prompt: Assign a bin to "COC(=O)c1sc(C(F)(F)F)c(-c2ccccc2)c1S(=O)(=O)N(C)C"
Completion: A

Prompt: Assign a bin to "Cc1ccc(-n2c(SCC(=O)N3c4ccccc4Sc4ccccc43)nnc2-c2ccncc2)cc1"
Completion: A

Prompt: Assign a bin to "CCOC(=O)c1cccnc1NC(=O)c1ccncc1"
Completion: B

Prompt: Assign a bin to "N=c1c2c3c(sc2ncn1N)CCCCC3"
Completion: C

Prompt: Assign a bin to "C=CCNc1nnc(C)c2ccccc12"
Completion: C

Prompt: Assign a bin to "Nc1ccccc1SCc1cc([N+](=O)[O-])cc2c1OCOC2"
Completion: B

Prompt: Assign a bin to "COc1cc2nc(N3CCN(C(=O)[C@@H]4CCCO4)CC3)nc(N)c2cc1OC"
Completion: C

Prompt: Assign a bin to "N=c1c2c3c(sc2ncn1CCCN1CCOCC1)CCCCC3"
Completion: C

Prompt: Assign a bin to "N#Cc1ccc(/C=C2\CCn3c2nc2cc(C(=O)O)ccc2c3=O)cc1"
Completion: C

Prompt: Assign a bin to "Cc1ccc(-n2c(C)cc(/C=N\NC(=O)CC(=O)NC(C)C)c2C)cc1"
Completion: B

Origin of measurements: PubChem BioAssay AID504833
